Where do these numbers come from? They come from patent US11331314B2.

- targetEntity: human V2 receptor (Homo sapiens, UniProt P30518)
- Sequence (P30518 whole entry): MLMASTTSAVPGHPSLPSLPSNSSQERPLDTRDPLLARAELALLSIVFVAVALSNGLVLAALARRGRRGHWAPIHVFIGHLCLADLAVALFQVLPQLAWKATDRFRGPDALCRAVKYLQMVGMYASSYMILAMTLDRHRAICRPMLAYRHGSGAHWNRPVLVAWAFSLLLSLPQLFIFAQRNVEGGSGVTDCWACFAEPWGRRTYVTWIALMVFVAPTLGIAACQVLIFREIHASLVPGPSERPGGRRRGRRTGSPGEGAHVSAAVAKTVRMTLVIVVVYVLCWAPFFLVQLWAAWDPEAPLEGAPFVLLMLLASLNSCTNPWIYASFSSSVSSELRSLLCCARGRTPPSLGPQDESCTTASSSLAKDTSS
- assayOverview: Cellular in vitro assay for determining vasopressin receptor activity, V2 receptor cell line (CRE-luciferase)
- conditionParameters: CHO cell line transfected with the human V2 receptor; agonist [Arg8]-vasopressin at EC50 concentration; read-out: IC50 hV2
- Protocol: B-1. Cellular In Vitro Assay for Determining Vasopressin Receptor Activity The identification of agonists and antagonists of the V1a and V2 vasopressin receptors from humans, rats and dogs as well as the quantification of the activity of the compounds of the invention is carried out using recombinant cell lines. […] The bioluminescence of the cell lines is detected using a suitable luminometer [Milligan G, Marshall F, Rees S, Trends in Pharmacological Sciences 17, 235-237 (1996)]. […]

smilesStr: CS(=O)(=O)C1CN(c2nc(Cn3nc(-c4ccc(Cl)cc4)n(C[C@H](O)C(F)(F)F)c3=O)nn2-c2ccccc2Cl)C1
IC50: 0.84 nM
//
smilesStr: O=c1n(Cc2nc(N3CC4(C3)CS(=O)(=O)C4)n(-c3ccccc3Cl)n2)nc(-c2ccc(Cl)cc2)n1C[C@H](O)C(F)(F)F
IC50: 5.63 nM
//
smilesStr: CCOC(=O)CNc1nc(Cn2nc(-c3ccc(Cl)cc3)n(C[C@H](O)C(F)(F)F)c2=O)nn1-c1cccc(Cl)c1
IC50: 2.07 nM
//
smilesStr: CN(CCO)c1nc(Cn2nc(-c3ccc(Cl)cc3)n(C[C@H](O)C(F)(F)F)c2=O)nn1-c1ccccc1Cl
IC50: 12 nM

---

- targetEntity: human V2 receptor (Homo sapiens)
- assayOverview: Cellular in vitro assay for determining vasopressin receptor activity, V2 receptor cell line (CRE-luciferase)
- conditionParameters: CHO cell line transfected with the human V2 receptor; agonist [Arg8]-vasopressin at EC50 concentration; read-out: IC50 hV2
pIC50: −log10 of the molar value.
Class met: pIC50 at least 8. Class not met: pIC50 below 8.

molecule: NC(=O)[C@@H]1CCN(c2nc(Cn3nc(-c4ccc(Cl)cc4)n(C[C@H](O)C(F)(F)F)c3=O)nn2-c2ccccc2Cl)C1
classLabel: met
//
molecule: COCCNc1nc(Cn2nc(-c3ccc(Cl)cc3)n(C[C@H](O)C(F)(F)F)c2=O)nn1-c1cccc(F)c1
classLabel: met
//
molecule: O=C1CC(Nc2nc(Cn3nc(-c4ccc(Cl)cc4)n(C[C@H](O)C(F)(F)F)c3=O)nn2-c2ccccc2Cl)CN1 (mixture of isomers)
classLabel: met
//
molecule: O=c1n(Cc2nc(N3CCNC(C(F)(F)F)C3)n(CCC(F)(F)F)n2)nc(-c2ccc(Cl)cc2)n1C[C@H](O)C(F)(F)F (mixture of isomers) [Example 106]
classLabel: not met
//
molecule: O=C1CCC(CNc2nc(Cn3nc(-c4ccc(Cl)cc4)n(C[C@H](O)C(F)(F)F)c3=O)nn2-c2ccccc2Cl)N1 (single isomer, unassigned) [Example 64]
classLabel: met
//
molecule: O=c1n(Cc2nc(N3CCOC(C(F)(F)F)C3)n(CCC(F)(F)F)n2)nc(-c2ccc(Cl)cc2)n1C[C@H](O)C(F)(F)F (mixture of isomers) [Example 103]
classLabel: not met
//
molecule: O=c1n(Cc2nc(N3CCC(F)(F)C3)n(-c3ccccc3Cl)n2)nc(-c2ccc(Cl)cc2)n1C[C@H](O)C(F)(F)F
classLabel: met
//
molecule: NCC(O)CNc1nc(Cn2nc(-c3ccc(Cl)cc3)n(C[C@H](O)C(F)(F)F)c2=O)nn1-c1ccccc1Cl (mixture of isomers)
classLabel: met
//
molecule: O=c1n(Cc2nc(N3CCNCC3)n(-c3ccccc3Cl)n2)nc(-c2ccc(Cl)cc2)n1C[C@H](O)C(F)(F)F
classLabel: not met
//
molecule: CS(=O)(=O)CCNc1nc(Cn2nc(-c3ccc(Cl)cc3)n(C[C@H](O)C(F)(F)F)c2=O)nn1-c1ccccc1Cl
classLabel: met
//
molecule: O=c1n(Cc2nc(N3CCOC(C(F)(F)F)C3)n(-c3ccccc3Cl)n2)nc(-c2ccc(Cl)cc2)n1C[C@H](O)C(F)(F)F (mixture of isomers)
classLabel: not met
//
molecule: CC1(O)CCN(c2nc(Cn3nc(-c4ccc(Cl)cc4)n(C[C@H](O)C(F)(F)F)c3=O)nn2-c2ccccc2Cl)C1 (mixture of isomers) [Example 29]
classLabel: met
//
molecule: NC(=O)[C@H]1CCCN1c1nc(Cn2nc(-c3ccc(Cl)cc3)n(C[C@H](O)C(F)(F)F)c2=O)nn1-c1ccccc1Cl
classLabel: not met
//
molecule: NC(CNc1nc(Cn2nc(-c3ccc(Cl)cc3)n(C[C@H](O)C(F)(F)F)c2=O)nn1-c1ccccc1Cl)C(F)(F)F (mixture of isomers) [Example 6]
classLabel: met
//
molecule: O=c1n(Cc2nc(N3CCOC(C(F)(F)F)C3)n(CCC(F)(F)F)n2)nc(-c2ccc(Cl)cc2)n1C[C@H](O)C(F)(F)F (single isomer, unassigned) [Example 105]
classLabel: not met
//
molecule: CC(C)(C)CNc1nc(Cn2nc(-c3ccc(Cl)cc3)n(C[C@H](O)C(F)(F)F)c2=O)nn1-c1ccccc1Cl
classLabel: met

---

- targetEntity: human V1a receptor (Homo sapiens, UniProt P37288)
- Sequence (P37288 whole entry): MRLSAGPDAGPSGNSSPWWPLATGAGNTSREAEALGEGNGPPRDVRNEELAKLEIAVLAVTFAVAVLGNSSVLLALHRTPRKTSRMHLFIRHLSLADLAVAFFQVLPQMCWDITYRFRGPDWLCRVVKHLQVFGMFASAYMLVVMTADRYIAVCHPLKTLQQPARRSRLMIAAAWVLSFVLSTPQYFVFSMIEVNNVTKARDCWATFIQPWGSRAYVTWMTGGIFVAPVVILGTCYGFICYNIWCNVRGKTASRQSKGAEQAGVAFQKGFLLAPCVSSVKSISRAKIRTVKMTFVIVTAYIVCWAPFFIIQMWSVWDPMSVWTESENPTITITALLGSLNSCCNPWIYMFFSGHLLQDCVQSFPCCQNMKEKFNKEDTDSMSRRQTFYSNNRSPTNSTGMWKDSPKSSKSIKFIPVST
- assayOverview: Cellular in vitro assay for determining vasopressin receptor activity, V1a receptor cell line (photoprotein luminescence)
- Type: cell-based
- conditionParameters: selectivity ratio of the cellular IC50 values
Returns fulfilled if the recorded ratio IC50 hV2/hV1a is greater than or equal to 6, and not fulfilled otherwise.

molecule: O=c1n(Cc2nc(N3CC4(COC4)C3)n(-c3ccccc3Cl)n2)nc(-c2ccc(Cl)cc2)n1C[C@H](O)C(F)(F)F
classLabel: fulfilled
--
molecule: NC(=O)[C@@H]1CCN(c2nc(Cn3nc(-c4ccc(Cl)cc4)n(C[C@H](O)C(F)(F)F)c3=O)nn2-c2ccccc2Cl)C1
classLabel: fulfilled
--
molecule: O=c1n(Cc2nc(N3CCNC(C(F)(F)F)C3)n(CCC(F)(F)F)n2)nc(-c2ccc(Cl)cc2)n1C[C@H](O)C(F)(F)F (single isomer, unassigned) [Example 107]
classLabel: fulfilled
--
molecule: O=C1CCC(CNc2nc(Cn3nc(-c4ccc(Cl)cc4)n(C[C@H](O)C(F)(F)F)c3=O)nn2-c2ccccc2Cl)N1 (single isomer, unassigned) [Example 64]
classLabel: not fulfilled
--
molecule: COC1CCN(c2nc(Cn3nc(-c4ccc(Cl)cc4)n(C[C@H](O)C(F)(F)F)c3=O)nn2-c2ccccc2Cl)C1 (mixture of isomers)
classLabel: not fulfilled
--
molecule: COCCNc1nc(Cn2nc(-c3ccc(Cl)cc3)n(C[C@H](O)C(F)(F)F)c2=O)nn1-c1cccc(F)c1
classLabel: not fulfilled
--
molecule: CC(C)(O)CNc1nc(Cn2nc(-c3ccc(Cl)cc3)n(C[C@H](O)C(F)(F)F)c2=O)nn1-c1ccccc1Cl
classLabel: fulfilled
--
molecule: NC(CNc1nc(Cn2nc(-c3ccc(Cl)cc3)n(C[C@H](O)C(F)(F)F)c2=O)nn1-c1ccccc1Cl)C(F)(F)F (single isomer, unassigned) [Example 7]
classLabel: not fulfilled
--
molecule: NC(=O)[C@H]1CC(F)(F)CN1c1nc(Cn2nc(-c3ccc(Cl)cc3)n(C[C@H](O)C(F)(F)F)c2=O)nn1-c1ccccc1Cl
classLabel: fulfilled
--
molecule: O=c1n(Cc2nc(N3CCCC3)n(-c3cccc(F)c3)n2)nc(-c2ccc(Cl)cc2)n1C[C@H](O)C(F)(F)F
classLabel: not fulfilled
--
molecule: CC1(O)CCN(c2nc(Cn3nc(-c4ccc(Cl)cc4)n(C[C@H](O)C(F)(F)F)c3=O)nn2-c2ccccc2Cl)C1 (mixture of isomers) [Example 29]
classLabel: not fulfilled
--
molecule: O=C1CN(c2nc(Cn3nc(-c4ccc(Cl)cc4)n(C[C@H](O)C(F)(F)F)c3=O)nn2-c2ccccc2Cl)CCN1
classLabel: fulfilled

---

- targetEntity: human V1a receptor (Homo sapiens, UniProt P37288)
- assayOverview: Cellular in vitro assay for determining vasopressin receptor activity, V1a receptor cell line (photoprotein luminescence)
- Type: cell-based
- conditionParameters: selectivity ratio of the cellular IC50 values
- Description: B-1. Cellular In Vitro Assay for Determining Vasopressin Receptor Activity The identification of agonists and antagonists of the V1a and V2 vasopressin receptors from humans, rats and dogs as well as the quantification of the activity of the compounds of the invention is carried out using recombinant cell lines. […] The bioluminescence of the cell lines is detected using a suitable luminometer [Milligan G, Marshall F, Rees S, Trends in Pharmacological Sciences 17, 235-237 (1996)]. […]
Tag: yes (1) if measured ratio IC50 hV2/hV1a is not below 10, no (0) if it is.

compound: CC(=O)N1CCN(c2nc(Cn3nc(-c4ccc(Cl)cc4)n(C[C@H](O)C(F)(F)F)c3=O)nn2-c2ccccc2Cl)CC1 [Example 75]
classLabel: yes (1)

compound: CC(C)(C)OC(=O)N1CCCC(O)(CNc2nc(Cn3nc(-c4ccc(Cl)cc4)n(C[C@H](O)C(F)(F)F)c3=O)nn2-c2ccccc2Cl)CC1 (mixture of isomers) [Example 19]
classLabel: yes (1)

compound: CC(C)(N)CNc1nc(Cn2nc(-c3ccc(Cl)cc3)n(C[C@H](O)C(F)(F)F)c2=O)nn1-c1ncccc1F [Example 92]
classLabel: yes (1)

compound: CC(C)(CF)CNc1nc(Cn2nc(-c3ccc(Cl)cc3)n(C[C@H](O)C(F)(F)F)c2=O)nn1-c1ccccc1Cl [Example 3]
classLabel: no (0)

compound: NS(=O)(=O)CCNc1nc(Cn2nc(-c3ccc(Cl)cc3)n(C[C@H](O)C(F)(F)F)c2=O)nn1-c1ccccc1Cl [Example 44]
classLabel: no (0)
